- run.description: NCI Yeast Anticancer Drug Screen. Data for the cln2 rad14 strain (AID 165);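 further: 0% = growth equal to vehicle treated cultures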
- condition.summary: S. cerevisiae cln2 rad14 strain, at 5.0 µM (retest, dose inferred, filed as 0.5), stronger effect = higher value
- Protocol: Growth inhibition of yeast strains with defined genetic alterations is measured as a screen for potential anti-cancer activity. Selected strains with alterations in DNA damage repair or cell cycle control were exposed to compounds and growth inhibition was measured relative to vehicle treated controls. The strain used in this assay is cln2 rad14
The panel holds about 79,000 compounds, 15% with a hit somewhere; the sample as a whole holds those more often. Where a SMILES comes first, the peptide text is derived from it. The star is where a group is joined. Trt = c1ccc(C(c2ccccc2)(c2ccccc2)*)cc1; Cbz = O=C(OCc1ccccc1)*
Please respond with reported growth inhibition for every item in the list.
Kindly answer with a numeric value in %, unit omitted.

Data point: `S=C(Nc1ccc(Br)c(Cl)c1)SCc1ccc2c(c1)OCO2` ; growth inhibition = 50

Data point: `c1ccc2cc3nc4ccccc4nc3cc2c1` ; growth inhibition = 15

Data point: NC(CSSCC(N)C(=O)Nc1ccc2ccccc2c1)C(=O)Nc1ccc2ccccc2c1 (configuration not stated) ; growth inhibition = 21

Data point: `COC(=O)C(=O)CC(=O)c1cccc(Cl)c1` ; growth inhibition = 6

Data point: CCOC(=O)CCC(NC(=O)C(CSC(c1ccccc1)(c1ccccc1)c1ccccc1)NC(=O)OCc1ccccc1)C(=O)NC(CCC(=O)OCC)C(=O)NC(CCC(=O)OCC)C(=O)NC(CCC(=O)OCC)C(=O)NC(CSC(c1ccccc1)(c1ccccc1)c1ccccc1)C(=O)OC (configuration not stated) (Cbz-C(Trt)E(OEt)E(OEt)E(OEt)E(OEt)C(Trt)-OMe; configuration not given here) ; growth inhibition = 7

Data point: `c1ccc([Si](C[CH2][Sn]([c]2ccccc2)([c]2ccccc2)[c]2ccccc2)(c2ccccc2)c2ccc([Si](C[CH2][Sn]([c]3ccccc3)([c]3ccccc3)[c]3ccccc3)(c3ccccc3)c3ccccc3)cc2)cc1` ; growth inhibition = 99

Data point: `Cc1c(C[n+]2cc3ccccc3cc2/C=N/O)ccc2ccccc12` ; growth inhibition = -2

---

Please respond with reported growth inhibition for every item in the list.
- run.description: NCI Yeast Anticancer Drug Screen. Data for the mlh1 rad18 strain (AID 175)
- condition.summary: S. cerevisiae mlh1 rad18 strain growth inhibition; at 50.0 µM (retest, dose inferred, filed as 5.0); stronger effect = higher value
- Description: Growth inhibition of yeast strains with defined genetic alterations is measured as a screen for potential anti-cancer activity. Selected strains with alterations in DNA damage repair or cell cycle control were exposed to compounds and growth inhibition was measured relative to vehicle treated controls. The strain used in this assay is mlh1 rad18
The panel holds about 79,000 compounds, 15% with a hit somewhere; the sample as a whole holds those more often.
Kindly answer with a numeric value in %, unit omitted.

Data point: `O=C1c2ccccc2C(=O)N1C(=NCc1ccccc1)c1ccccc1` ; growth inhibition = 78

Data point: `CCOC(=O)c1c(Cl)nnc(-c2ccccc2)c1-c1ccccc1` ; growth inhibition = 98

Data point: `Cc1ccc(NNC2=NC(=S)NC(=O)C2)cc1` ; growth inhibition = 97

Data point: O=C(NN1C(=O)C(Cl)C1c1ccc(O)cc1)c1ccccc1O (stereo unspecified) ; growth inhibition = 91

Data point: C/C=C(/CCC1NCCC2c3ccccc3NC12)[Si](C)(C)C (stereo unspecified) ; growth inhibition = 37

Data point: `COC(=O)/C(Br)=C(\Br)c1ccccc1` ; growth inhibition = 40

Data point: O=C(O)C(O)C(O)C(OC1OC(CO)C(O)C(O)C1O)C(O)CO.[Br][Pt].[NH-]C1CCCCC1[NH-] (stereo unspecified) ; growth inhibition = 98

Data point: `OCCCNc1nc2c(Cl)cc(Cl)cc2c2ccccc12` ; growth inhibition = 30

Data point: COC(=O)C1C(C(=O)OC)C2(OC(c3ccc(Cl)cc3)=CC2=O)C12OC(c1ccc(Cl)cc1)=CC2=O (stereo unspecified) ; growth inhibition = 98

Data point: CN(Cc1ccccc1)C(c1ccccc1)C(O)C(O)(c1ccccc1)c1ccccc1 (stereo unspecified) ; growth inhibition = 81

Data point: `O=C1C=CC(=O)N1c1ccccc1[N+](=O)[O-]` ; growth inhibition = 100

---

- run.description: NCI Yeast Anticancer Drug Screen. Data for the sgs1 mgt1 strain (AID 161);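 further: 0% = growth of cultures given vehicle only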
- condition.summary: S. cerevisiae sgs1 mgt1 strain, at 50.0 µM, stronger effect = higher value
This is part of a sample that, as a whole, favours compounds with a hit. Of some 79,000 tested, about 15% had one in any assay.
Rule: Criterion met for growth inhibition not less than 90%, Criterion not met for anything less.

Is it the case that `O=C(CCl)Oc1ccc(Sc2ccc(OC(=O)CCl)cc2)cc1` has growth inhibition reaching or exceeding 90%?
Criterion met

Is it the case that `Cc1cccc2c(CBr)cc(=O)[nH]c12` has growth inhibition reaching or exceeding 90%?
Criterion not met

Is it the case that `COc1ccccc1N=Nc1c(N)nc(N)[nH]c1=O` has growth inhibition reaching or exceeding 90%?
Criterion not met

Is it the case that `CCCNC(=O)c1cc2ccccc2cc1C(=O)OC` has growth inhibition reaching or exceeding 90%?
Criterion not met

Is it the case that `COC(=O)c1c2oc3c(C(=O)OC)cccc3nc-2cc(N)c1=O` has growth inhibition reaching or exceeding 90%?
Criterion not met

Is it the case that C1CCC(CC2CCC(NC3=NCCO3)CC2)CC1 (configuration not stated) has growth inhibition reaching or exceeding 90%?
Criterion not met

---

- run.description: NCI Yeast Anticancer Drug Screen. Data for the mec2-1 strain (AID 157)
- condition.summary: S. cerevisiae mec2-1 strain, at 5.0 µM (retest, dose inferred, filed as 0.5), stronger effect = higher value
Compounds without any hit were thinned out: in the full panel of roughly 79,000, 15% have a hit.
Please respond with reported growth inhibition for every item in the list.
Kindly answer with a numeric value in %, unit omitted.

Data point: O=C1C(=O)C(Cc2ccccc2)(c2ccccc2)C(=O)N1c1ccccc1 (stereo not given) ; growth inhibition = -3

Data point: `CN=c1ss/c(=N\C(=S)N(C)C)n1-c1ccccc1` ; growth inhibition = -11

Data point: CC1=CC(O)(c2nc3ccccc3s2)CC(C)(C)C1 (stereo not given) ; growth inhibition = 6

Data point: `CN(Nc1ccc(Cl)cc1)c1ccc(Cl)cc1` ; growth inhibition = 12

Data point: `O=C(CCl)Oc1ccc(Sc2ccc(OC(=O)CCl)cc2)cc1` ; growth inhibition = 12

Data point: `COc1ccc2nc3cc(Cl)ccc3c(NCCCN(Cc3cc(OC)c(OC)c(OC)c3)Cc3cc(OC)c(OC)c(OC)c3)c2c1` ; growth inhibition = 29

Data point: Cc1ccc(SC2C(=O)C3(C)CCC2C3(C)C)cc1 (stereo not given) ; growth inhibition = -1

Data point: `Nc1ccc2nc(Nc3ccc(Cl)c(Cl)c3)cnc2c1` ; growth inhibition = -1

Data point: `C[N+](C)(CCCCCCOc1c(Br)cc(Br)cc1Br)Cc1ccc(Br)o1` ; growth inhibition = 38

Data point: `CCCCCN1C(=O)CC(C(=O)OCC)=C1C` ; growth inhibition = -3

Data point: O=[N+]([O-])C1(CO)COC(CCc2ccccc2)OC1 (stereo not given) ; growth inhibition = 0

Data point: `CCOC(=O)c1[nH]c(Br)c(-c2ccc(OC)c(OC)c2)c1Br` ; growth inhibition = -8

Data point: COC(=O)CCC(C)C1CCC2C3CCC4CC(SC(=N)N)CCC4(C)C3CC(O)C12C (stereo not given) ; growth inhibition = 23

Data point: COc1ccc(C(c2cc3c(cc2O)OCO3)N2CCOCC2)c(OC)c1OC (stereo not given) ; growth inhibition = 4

Data point: O=C(c1ccc(Br)cc1)C1OC12C(=O)Nc1ccccc12 (stereo not given) ; growth inhibition = 99

Data point: `O=C(/C=C/c1ccccc1)CCN1CCN(CCC(=O)/C=C/c2ccccc2)CC1` ; growth inhibition = 56

Data point: OC1CCCCC1Cc1ccc(Cl)cc1 (stereo not given) ; growth inhibition = 4

Data point: `CC(C)Cc1cc(O)cc2ccccc12` ; growth inhibition = 5

Data point: COc1ccccc1C1C2=C(COC2=O)OC(C)(C)Oc2cc3c(cc21)OCO3 (stereo not given) ; growth inhibition = -13

Data point: CCCCCC(C)NCCOC(=O)c1ccccc1 (stereo not given) ; growth inhibition = -13

Data point: CC1(C)CCCC12C=NCC2 (stereo not given) ; growth inhibition = -2

Data point: `O=C1c2cc(O)ccc2C(=O)c2c1ccc(O)c2O` ; growth inhibition = 14

Data point: CCC1(O)c2ccccc2C(O)(CC)c2ccccc21 (stereo not given) ; growth inhibition = 3

Data point: `O=c1c(O)c(-c2ccc(Cl)cc2)oc2cc(O)ccc12` ; growth inhibition = 2

Data point: `COc1ccc(/C(C#N)=C/c2ccncc2)cc1` ; growth inhibition = -49

Data point: `Nc1ccccc1/C=C1/Sc2cc[nH]c2C1=O` ; growth inhibition = 1

Data point: `CCCCCCCCCCCCCCCBr` ; growth inhibition = -9

Data point: `C=C(CN1CCOCC1)C(=O)c1ccccc1` ; growth inhibition = 18

Data point: `Cc1cc[c]([Sn]([Cl])([O][Sn]([Cl])([c]2ccc(C)cc2)[c]2ccc(C)cc2)[c]2ccc(C)cc2)cc1` ; growth inhibition = 15

Data point: `C=C1C(=O)[C@]23C[C@H]1CC[C@H]2[C@@]12CO[C@@H](O)[C@@H]1C(C)(C)[C@@H](O)C[C@@H]2OC3=O` ; growth inhibition = -19

Data point: `CC1=C(C)C(=O)C(CNCc2ccccc2)=[C-]C1=O.[Co].[c-]1[c-][c-][cH-][c-]1` ; growth inhibition = -3

Data point: CCC(CC=C(C)C)(CC=C(C)C)c1ccncc1 (tested in a mixture with another compound) ; growth inhibition = -8

Data point: `O=C/C=C/c1cc([N+](=O)[O-])ccc1Cl` ; growth inhibition = -47

Data point: `CC(=O)Oc1c2c(c(OC(C)=O)c3c1n(C(C)=O)c1ccccc1n3C(C)=O)n(C(C)=O)c1ccccc1n2C(C)=O` ; growth inhibition = 42

Data point: CC(C)C1/C(=N/O)CC(c2ccccc2)N(N=O)C1c1ccccc1 (stereo not given) ; growth inhibition = -13

Data point: `Nc1ccc2c(c1)CN1C(=O)c3ccccc3C1=N2` ; growth inhibition = 8

Data point: `CCS(=O)(=O)/C=C/c1ccncc1` ; growth inhibition = 3

Data point: CCN(CC)CCN(C)c1ccc(CO)c2c1C(=O)c1ccccc1S2=O (stereo not given) ; growth inhibition = -3

Data point: `Cc1cc(C)c(Cc2cc(C(C)(C)C)cc(C)c2O)cc1Cc1cc(C(C)(C)C)cc(C)c1O` ; growth inhibition = -5

Data point: `COc1ccc(CSC(=S)Nc2ccc(Cl)c([N+](=O)[O-])c2)cc1` ; growth inhibition = 50

Data point: `S=C(S)NCCN1CCNCC1` ; growth inhibition = -20

Data point: `Oc1ccc(N=Nc2ccccc2)c(O)c1.Oc1ccc(N=Nc2ccccc2)c(O)c1.[Cu]` ; growth inhibition = 16

Data point: OC1C2CCC1C1C3C=CC(C3)C21 (stereo not given) ; growth inhibition = 5

Data point: `CC1=CC(=O)[C@@H](O)[C@]2(C)[C@H]3[C@@]4(O)OC[C@]35[C@H]([C@@H](C)[C@H]4O)[C@@H](OC(=O)C(C)(C)CO)C(=O)O[C@@H]5C[C@@H]12` ; growth inhibition = 15

Data point: `Oc1c(Cl)ccc2cccnc12` ; growth inhibition = 98
